tested on: E. coli 2687; test: Drug sensitivity, Kirby-Bauer test; format: cell-based, Escherichia coli; set-up: key: 'S' represents susceptibility; 'I' represents intermediate efficacy; 'R' represents resistance; conditions: clinical isolate, ESBL
OBSERVATION_TYPE: Drug sensitivity of the isolate to the antibiotic

COMPOUND | MEASURED
C[C@H]1COc2c(N3CCN(C)CC3)c(F)cc3c(=O)c(C(=O)O)cn1c23 [Levofloxacin] | R
C[C@@H](O)[C@H]1C(=O)N2C(C(=O)O)=C(S[C@@H]3CN[C@H](C(=O)N(C)C)C3)[C@H](C)[C@H]12 [Meropenem] | S
C[C@@H](O)[C@H]1C(=O)N2C(C(=O)O)=C(SCCN=CN)C[C@H]12 [Imipenem] | S
